# tested system: UniProt:P34972
# procedure text: Displacement of [3H]CP-55940 from human recombinant CB2 receptor expressed in HEK293 cell membranes incubated for 1.5 hrs
readout label: pIC50
pIC50 is a log-scale quantity: -log10 of the concentration expressed in molar.

Worked cases, answers included:
INSERT INTO measurements (molecule_smiles, readout_label, number) VALUES
  ('CCCc1sc2ccccc2c1C(=O)c1cccc2ccccc12', 'pIC50', 5.37),
  ('O=C(c1cccc2ccccc12)n1c(C2CCCCC2)nc2ccccc21', 'pIC50', 5.77),
  ('COc1ccc(C(=O)c2c(-c3ccc(OC)cc3)sc3ccccc23)cc1', 'pIC50', 6.40),
  ('CCCCCc1sc2ccccc2c1C(=O)c1ccc(OC)cc1', 'pIC50', 5.92),
  ('COc1ccc(Cn2c(-c3ccc(OC)cc3)nc3ccccc32)cc1', 'pIC50', 5.57),
  ('O=C(c1cccc2ccccc12)n1c(C2CCC2)nc2ccccc21', 'pIC50', 5.26),
  ('COc1ccc(C(=O)n2c(C3CCC3)nc3ccccc32)cc1', 'pIC50', 5.44),
  ('CCCCCc1sc2ccccc2c1C(=O)c1cccc2ccccc12', 'pIC50', 5.89);

Data request: State the recorded pIC50 for this entry: CCCCc1nc2ccccc2n1C(=O)c1ccc(OC)cc1
Data returned: 5.20

====

Parameter IC50 at 72 h: see the listing below.
# procedure text: Cytotoxicity against African green monkey Vero cells assessed as reduction in cell viability measured after 72 hrs by MTT assay
# Format: toxicity, cell-based
# experimental setup: Chlorocebus sabaeus (African green monkey)

Answered cases to consult:
INSERT INTO measurements (molecule, result) VALUES
  ('O=C(c1cccc2ccccc12)n1c(C2CCC2)nc2ccccc21', '> 10 µM'),
  ('COc1ccc(Cn2c(-c3ccc(OC)cc3)nc3ccccc32)cc1', '> 10 µM'),
  ('O=C(c1cccc2ccccc12)c1csc2ccccc12', '> 10 µM'),
  ('COc1ccc(C(=O)n2c(C(C)C)nc3ccccc32)cc1', '> 10 µM'),
  ('O=C(c1cc2ccccc2s1)c1cccc2ccccc12', '> 10 µM');

Data request: Which value of IC50 at 72 h has been reported for Cc1c(C(=O)c2cccc3ccccc23)c2cccc3c2n1[C@H](CN1CCOCC1)CO3 [WIN-552122] in the records?
Data returned: 0.31 µM

Data request: Proceed to COc1ccc(C(=O)n2c(C3CCCCC3)nc3ccccc32)cc1
Data returned: 1.64 µM

Data request: Next: CC(C)(C)c1nc2ccccc2n1C(=O)c1cccc2ccccc12
Data returned: > 10 µM

====

# tested system: Cannabinoid receptor 2 (Homo sapiens)
# Sequence (P34972 whole entry): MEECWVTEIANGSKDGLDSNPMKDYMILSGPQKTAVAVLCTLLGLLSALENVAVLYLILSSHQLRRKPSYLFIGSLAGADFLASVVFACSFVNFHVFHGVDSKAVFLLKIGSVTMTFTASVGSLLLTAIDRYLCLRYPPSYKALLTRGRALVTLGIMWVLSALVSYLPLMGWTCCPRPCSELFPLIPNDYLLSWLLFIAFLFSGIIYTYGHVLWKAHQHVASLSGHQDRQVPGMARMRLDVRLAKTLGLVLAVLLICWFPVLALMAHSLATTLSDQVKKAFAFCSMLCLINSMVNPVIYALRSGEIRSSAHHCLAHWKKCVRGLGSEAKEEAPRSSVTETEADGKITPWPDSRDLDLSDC
# procedure text: Displacement of [3H]CP-55940 from human recombinant CB2 receptor expressed in HEK293 cell membranes incubated for 1.5 hrs
readout label: log10 of IC50 (log10 of the value in nM)
All values: log10 IC50 [nM].

INSERT INTO measurements (molecule_smiles, tested_system, number) VALUES
  ('CCc1sc2ccccc2c1C(=O)c1cccc2ccccc12', 'Cannabinoid receptor 2 (Homo sapiens)', 3.46),
  ('COc1ccc(C(=O)c2c(CC(C)C)sc3ccccc23)cc1', 'Cannabinoid receptor 2 (Homo sapiens)', 2.85),
  ('CCCc1sc2ccccc2c1C(=O)c1ccc(OC)cc1', 'Cannabinoid receptor 2 (Homo sapiens)', 3.08),
  ('CC(C)Cc1sc2ccccc2c1C(=O)c1cccc2ccccc12', 'Cannabinoid receptor 2 (Homo sapiens)', 3.30);

Data request: Tell me reported log10 of IC50 for COc1ccc(C(=O)n2c(C(C)(C)C)nc3ccccc32)cc1 , tested with Cannabinoid receptor 2 (Homo sapiens).
Data returned: 3.38

Data request: Now the same for CCCc1nc2ccccc2n1C(=O)c1ccc(OC)cc1
Data returned: 3.88

Data request: Try this molecule too: COc1ccc(C(=O)n2c(C(C)C)nc3ccccc32)cc1
Data returned: 3.51

Data request: Now this one: CCCCc1nc2ccccc2n1C(=O)c1cccc2ccccc12
Data returned: 3.23

Data request: Same read-out for COc1ccc(C(=O)n2c(C3CCCC3)nc3ccccc32)cc1 ?
Data returned: 3.34
